test system: biotinyl-Met-oxazolone; test: self-aminoacylation, catalytic enhancement (BMO) (fold over background); higher = more active; k-Seq, kA / k0A0; sequences stand for … in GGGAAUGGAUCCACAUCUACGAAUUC…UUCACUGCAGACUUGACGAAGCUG
This sample holds only a part of the variants without activity.
Overview of recorded self-aminoacylation for various sequences
Lab note: record just the number, no unit beside it.

// solved cases for self-aminoacylation follow
SEQUENCE: AUUCACCUGGGUCAUCGCGUG [Fam2.2 aminoacylation ribozyme variant]
ASSAY READOUT: self-aminoacylation
OBSERVED RESULT: 14.3

SEQUENCE: CUACUUCGACCAAUCGGUCUG [Fam1A.1 aminoacylation ribozyme variant]
ASSAY READOUT: self-aminoacylation
OBSERVED RESULT: 0.856

Then this sequence:
Task item: Fill in reported self-aminoacylation for this entry: AUACACCUAGGUCAUCGGGGG [Fam2.2 aminoacylation ribozyme variant]
Reply: 1.29
